Test system: P388 leukemia ip, CD2F1 mice, survival T/C
Test: NCI In Vivo Anticancer Drug Screen. Data for tumor model P388 Leukemia (intraperitoneal) in CD2F1 (CDF1) mice
Details: endpoint: median survival time; dose: 120.0 mg/kg/injection; schedule: Q01DX005 (ip); vehicle: saline; higher = longer survival
Toxic doses and inconclusive results are not listed.
Please respond with reported T/C for every item in the list.

The cases that follow already have their T/C on record.
O=C(c1ccc2c(c1)OCO2)S(=O)(=O)O :: 96 % of control
N=C1N=Nc2nc(C3(c4nc5n(c4O)C(=N)N=N5)Cc4ccccc4C3=O)c(O)n21 (centres undefined) :: 103 % of control
CS(=O)(=O)C(c1nc2n(c1O)/C(=N/C(=O)Nc1ccc(Cl)cc1)N=N2)c1nc2n(c1O)/C(=N/C(=O)Nc1ccc(Cl)cc1)N=N2 :: 96 % of control
O=C1C2CSCN2C(=O)CN1CCN1CCOCC1 (centres undefined) :: 100 % of control

Give me T/C for each of these molecules, listed below.
1. O=C(OCCO)c1ccccc1-c1c2cc3cc(Br)c(O)c(Br)c3oc-2c(Br)c(=O)c1Br
2. Nc1nnc2nc(C(C(=O)c3cccc(O)c3)c3nc4nnc(N)n4[nH]c3=O)c(=O)[nH]n12
3. O=C(O)CC(CS(=O)CP(=O)(O)O)C(=O)O (centres undefined)
4. CCCCN(CCO)CC(O)Cn1cnc2c(N)ncnc21 (centres undefined) (tested in a mixture with another compound)
5. Nc1nc(-c2cc(-c3ccco3)nc(N)n2)cc(-c2ccco2)n1

## Result
94 % of control
106 % of control
98 % of control
97 % of control
103 % of control
